- assay: amyloid nucleation score (Sup35N fusion, yeast selection) (log enrichment); library NNK3; higher = more nucleation; inactive = no reads after selection;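 note: zero at mode of non-aggregating sequences after 7 days selection at 30°C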
outcome-measure: amyloid nucleation score

Worked cases, answers included:
1. EHLQRGSHLFSFSRSEI
inactive
2. SRRSSS
1.28
3. KYKSVCVKFNEDLTG
inactive
4. SNFAMGVRLY
inactive
5. ADNIGRFVYCYCSVLQTTIS
0.401
6. RLVAFGRRWDESSKVECMWS
inactive
7. TCVLLCDVFFHGLVLDLKLV
inactive
8. FSCPRVSIFGLCSNCMYQWW
2.43
9. RQCMKRLWDSCYKKAWIKYV
inactive
10. CYWVRDSRLGW
inactive

Reported amyloid nucleation score, substance LLVSFLVVLSWAVRFSRMGD : ____
inactive

Reported amyloid nucleation score, substance NSCSVVMFPYH : ____
inactive

Reported amyloid nucleation score, substance SPDGIGTMRGNFLGTPWRCR : ____
inactive

Reported amyloid nucleation score, substance MGGVCMSMS : ____
inactive

Reported amyloid nucleation score, substance QLYVTPYLRDVWYDQASSYE : ____
inactive

Reported amyloid nucleation score, substance FISHSCYGWILRGCQTVGFW : ____
-0.552

Reported amyloid nucleation score, substance WEHLGETYGVFMSTEDRESG : ____
inactive

---

- assay: amyloid nucleation score (Sup35N fusion, yeast selection) (log enrichment); library NNK3; higher = more nucleation; inactive = no reads after selection
outcome-measure: amyloid nucleation score

1) ARMVVVLKRFCGVCMMSLFL
inactive
2) MVGVGSKLGLLAATEVWNEI
inactive
3) YWNFYSSNLYWT
inactive
4) ANPFFSLDK
inactive
5) DGMNSPRMEIRDRDRSAYIL
inactive

Reported amyloid nucleation score, substance SYFWILRAWS : ____
inactive

Reported amyloid nucleation score, substance KLLLMGCRDVYFSYRIFM : ____
3

Reported amyloid nucleation score, substance VHDRSLHLVGY : ____
-0.841

Reported amyloid nucleation score, substance YWLIRDLWRGRGS : ____
inactive

Reported amyloid nucleation score, substance IVSWKVRSVSLKLLLSCAPD : ____
inactive

Reported amyloid nucleation score, substance FPHSSGCYDAVTWSSWNGGH : ____
inactive

Reported amyloid nucleation score, substance YHCVRLFRVPMTISRGDAQK : ____
-0.271

Reported amyloid nucleation score, substance LKIFKCI : ____
inactive

Reported amyloid nucleation score, substance VCSMWSSSSMIKLRALDDYM : ____
inactive

Reported amyloid nucleation score, substance LFSSVC : ____
inactive

Reported amyloid nucleation score, substance VDWWSALEDYYSLELLMEVK : ____
inactive

Reported amyloid nucleation score, substance PLFFMPGNKWTYFSKSSADT : ____
inactive

Reported amyloid nucleation score, substance LHYKCNDVHQNGMLELCYLN : ____
inactive

---

- assay: amyloid nucleation score (Sup35N fusion, yeast selection) (log enrichment); library NNK3; higher = more nucleation; inactive = no reads after selection
outcome-measure: amyloid nucleation score

Worked cases, answers included:
1) LLLRCANHFCYMDATDIYFR
inactive
2) PSYFEYFVRIGFFG
inactive
3) FLVVVSF
inactive
4) TGSLWRNHCLVVPQVRYGRK
-0.017
5) FTNYRSRGNMVRGGPCRPSY
inactive
6) PHNLNGPS
-0.68
7) LFRHLVNRLNLTSTAKYHGF
inactive
8) RCYNHFHSI
inactive
9) VDLRLDY
inactive

// below: amyloid nucleation score requested for another substance
Reported amyloid nucleation score, substance SCQSGMSLCLSDHRLA : ____
inactive
